- system-under-test: RORγ LBD (Homo sapiens)
- Construct: RORγ LBD was diluted with the complete buffer D to a concentration of 1 ng/μL; GST; purchased AB Vector
- Sequence (P51449 269-508 limits assumed): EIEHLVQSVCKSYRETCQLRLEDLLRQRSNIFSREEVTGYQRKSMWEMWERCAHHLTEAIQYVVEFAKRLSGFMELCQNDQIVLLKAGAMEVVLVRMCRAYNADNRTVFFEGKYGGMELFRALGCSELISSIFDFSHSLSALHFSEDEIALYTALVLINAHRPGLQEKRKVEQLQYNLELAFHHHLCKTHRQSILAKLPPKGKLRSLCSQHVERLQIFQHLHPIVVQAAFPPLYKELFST
- assay-details: LanthaScreen TR-FRET RORγ co-activation system, effect on in vitro activity of RORγ
- Format: biochemical
- condition-description: TR-FRET RORγ co-activation; for agonist the value refers to EC50; read-out: EC50/IC50 a (nM): EC50 (agonist)
The reader will find reported EC50 values listed item by item below.
Dear colleague, please return just the value in nM, with no unit written.

Some compounds with known EC50 results, for comparison:
## Task Using the record for CCS(=O)(=O)c1ccc([C@H](CO)NC(=O)c2ccc3c(c2)cc(Cc2ccc(Cl)cc2C(F)(F)F)n3C2CC2)cc1 [Example 11] , report its EC50.
## Result 22

## Task Using the record for CCS(=O)(=O)c1ccc([C@H](COC)NC(=O)c2ccc3c(c2)cc(Cc2ccc(Cl)cc2C(F)(F)F)n3CCF)cc1 [Example 16] , report its EC50.
## Result 18

## Task Using the record for CCS(=O)(=O)c1ccc(C(CO)NC(=O)c2ccc3c(c2)cc(Cc2ccccc2C(F)(F)F)n3C(C)C)cc1 (stereo not shown) [Example 1] , report its EC50.
## Result 64

---
## Task Using the record for CCS(=O)(=O)c1ccc([C@H](CO)NC(=O)c2cc3cc(Cc4ccc(Cl)cc4C(F)(F)F)n(CCF)c3cc2F)cc1 [Example 5] , report its EC50.
## Result 334

## Task Using the record for CCS(=O)(=O)c1ccc([C@H](CO)NC(=O)c2cc3cc(Cc4ccc(Cl)cc4C(F)(F)F)n(C4CC4)c3cc2F)cc1 [Example 6] , report its EC50.
## Result 79

## Task Using the record for O=C(N[C@@H](CO)c1ccc(S(=O)(=O)CC2CC2)cc1)c1ccc2c(c1)cc(Cc1ccc(F)cc1C(F)(F)F)n2CCF [Example 14] , report its EC50.
## Result 138

## Task Using the record for CCS(=O)(=O)c1ccc([C@H](CO)NC(=O)c2ccc3c(c2)cc(CN2CCOCC2C(F)(F)F)n3CCF)cc1 (stereo partly shown) [Example 7] , report its EC50.
## Result 80

* * *

- system-under-test: RORγ LBD (Homo sapiens)
- Construct: RORγ LBD was diluted with the complete buffer D to a concentration of 1 ng/μL; GST; purchased AB Vector
- assay-details: LanthaScreen TR-FRET RORγ co-activation system, effect on in vitro activity of RORγ
- Format: biochemical
- condition-description: for agonist the value refers to Emax(%); read-out: Emax(%)/maximum inhibition rate b: Emax(%) (agonist)
parameter: Emax (%)
Dear colleague, please return just the value in %, with no unit written.

Some molecules with known Emax results, for comparison:
## Task Using the record for CCS(=O)(=O)c1ccc(C(CO)NC(=O)c2ccc3c(c2)cc(Cc2ccccc2C(F)(F)F)n3C(C)C)cc1 (stereo not shown) , report its Emax.
## Result 94

## Task Using the record for `CCS(=O)(=O)c1ccc([C@H](CO)NC(=O)c2cc3cc(Cc4ccc(Cl)cc4C(F)(F)F)n(C4CC4)c3cc2F)cc1` , report its Emax.
## Result 105

---
## Task Using the record for `O=C(N[C@@H](CO)c1ccc(S(=O)(=O)CC2CC2)cc1)c1ccc2c(c1)cc(Cc1ccc(Cl)cc1C(F)(F)F)n2CCF` , report its Emax.
## Result 96

## Task Using the record for CCS(=O)(=O)c1ccc([C@H](CO)NC(=O)c2ccc3c(c2)cc(CN2CCOCC2C(F)(F)F)n3CCF)cc1 (stereo partly shown) , report its Emax.
## Result 84

## Task Using the record for `CCS(=O)(=O)c1ccc([C@H](COC)NC(=O)c2ccc3c(c2)cc(Cc2ccc(Cl)cc2C(F)(F)F)n3CCF)cc1` , report its Emax.
## Result 97

## Task Using the record for `O=C(N[C@@H](CO)c1ccc(S(=O)(=O)NC2CC2)cc1)c1ccc2c(c1)cc(Cc1ccc(Cl)cc1C(F)(F)F)n2CCF` , report its Emax.
## Result 89

## Task Using the record for `CCS(=O)(=O)c1ccc([C@H](CO)NC(=O)c2ccc3c(c2)cc(Cc2ccc(Cl)cc2C(F)(F)F)n3C2CC2)cc1` , report its Emax.
## Result 94

* * *

- assay-details: Pharmacokinetics assay in mice after intragastrical administration
- Format: in vivo
- condition-description: female, C57, mouse, plasma, po, 2 mg/kg, read-out: Residence time MRT
parameter: MRT
Write your answer as a measured quantity: the number, then the unit.

## Task Using the record for CCS(=O)(=O)c1ccc([C@H](CO)NC(=O)c2ccc3c(c2)cc(Cc2ccc(Cl)cc2C(F)(F)F)n3CCF)cc1 [Example 4] , report its MRT.
## Result 15.5 h

* * *

- system-under-test: RORγ LBD (Homo sapiens, UniProt P51449)
- Construct: RORγ LBD was diluted with the complete buffer D to a concentration of 1 ng/μL; GST; purchased AB Vector
- assay-details: LanthaScreen TR-FRET RORγ co-activation system, effect on in vitro activity of RORγ
- Format: biochemical
- condition-description: TR-FRET RORγ co-activation; for agonist the value refers to EC50; read-out: EC50/IC50 a (nM): EC50 (agonist)
The reader will find reported EC50 values listed item by item below.
Dear colleague, please return just the value in nM, with no unit written.

Some molecules with known EC50 results, for comparison:
## Task Param readout = EC50; param system = RORγ LBD (Homo sapiens, UniProt P51449); param query = `O=C(N[C@@H](CO)c1ccc(S(=O)(=O)NC2CC2)cc1)c1ccc2c(c1)cc(Cc1ccc(Cl)cc1C(F)(F)F)n2CCF` ; response: value
## Result 13

## Task Param readout = EC50; param system = RORγ LBD (Homo sapiens, UniProt P51449); param query = `O=C(N[C@@H](CO)c1ccc(S(=O)(=O)C2CC2)cc1)c1ccc2c(c1)cc(Cc1ccc(Cl)cc1C(F)(F)F)n2CCF` ; response: value
## Result 124

Then there is this molecule:
## Task Param readout = EC50; param system = RORγ LBD (Homo sapiens, UniProt P51449); param query = `O=C(N[C@@H](CO)c1ccc(S(=O)(=O)CC2CC2)cc1)c1ccc2c(c1)cc(Cc1ccc(Cl)cc1C(F)(F)F)n2CCF` ; response: value
## Result 69

* * *

- system-under-test: RORγ LBD (Homo sapiens)
- Construct: RORγ LBD was diluted with the complete buffer D to a concentration of 1 ng/μL; GST; purchased AB Vector
- assay-details: LanthaScreen TR-FRET RORγ co-activation system, effect on in vitro activity of RORγ
- Assay type: biochemical
- condition-description: for agonist the value refers to Emax(%); read-out: Emax(%)/maximum inhibition rate b: Emax(%) (agonist)
The reader will find reported Emax values listed item by item below.
Write your answer as a measured quantity: the number, then the unit.

## Task Using the record for CCS(=O)(=O)c1ccc([C@H](CO)NC(=O)c2cc3cc(Cc4ccc(Cl)cc4C(F)(F)F)n(CCF)c3cc2F)cc1 [Example 5] , report its Emax.
## Result 110%

---
## Task Using the record for O=C(N[C@@H](CO)c1ccc(S(=O)(=O)C2CC2)cc1)c1ccc2c(c1)cc(Cc1ccc(Cl)cc1C(F)(F)F)n2CCF [Example 15] , report its Emax.
## Result 109%

## Task Using the record for O=C(N[C@@H](CO)c1ccc(S(=O)(=O)CC2CC2)cc1)c1ccc2c(c1)cc(Cc1ccc(F)cc1C(F)(F)F)n2CCF [Example 14] , report its Emax.
## Result 99%
